Provide the reported log10 of IC50 of each item.
# Target Or Test System: PTRGER4 (EP4) (Homo sapiens (Human))
# Assay Overview: hEP4 b-arrestin assay (PathHunter HEK 293 PTGER4 b-arrestin cells)
# Assay type: cell-based
# Run Conditions: antagonistic activity on hEP4; mean where measured multiple times
# Experimental: The assay is using the PathHunter™ HEK 293 PTGER2 and PTGER4 b-arrestin cell lines from DiscoverX. The system is based on the Enzyme Fragment Complementation Technology. Two complementing fragments of the b-galactosidase enzyme are expressed within stably transfected cells. […] Twelve μl of reagent are transferred to the assay plate and incubate for 1 hour at room temperature in the dark. Luminescence counts are read on a BMG Fluostar Optima reader according to manufacturer's instructions. […]
Heads up: the numbers are on a log10 scale; they represent IC50 in µM.

Solved entries:
Prompt: Entry CCc1cc(-c2cc(NCCn3c(C)cc4cc(C)cc(F)c43)ncn2)sc1C(=O)O [compound 241] needs its log10 of IC50 filled in; supply it.
Response: -0.89

Prompt: Entry COc1ccc(F)c2c1cc(C)n2CCNc1cc(-c2cc(C)c(C(=O)O)c(F)c2)ncn1 [compound 277] needs its log10 of IC50 filled in; supply it.
Response: -0.38

Prompt: Entry CCNc1cc(-c2cc(NCCn3c(C)cc4cccc(Cl)c43)ncn2)ccc1C(=O)O [compound 137] needs its log10 of IC50 filled in; supply it.
Response: -0.05

Prompt: Entry Cc1cc(F)cc2c1cc(C)n2CCNc1cc(-c2ccc3c(c2)CC(=O)N3)ncn1 [compound 61] needs its log10 of IC50 filled in; supply it.
Response: -0.29

Prompt: Entry COc1cccc2c1cc(C)n2CCNc1cc(-c2ccc(-c3cscn3)cc2)ncn1 [compound 98] needs its log10 of IC50 filled in; supply it.
Response: -0.64

// for each compound below, give its log10 of IC50
1. COc1ncc(-c2cc(NCCn3c(C)cc4c(OC)ccc(F)c43)ncn2)s1 [compound 3]
2. COc1cccc2c1cc(C)n2CCNc1cc(-c2ccc(CO)c(C)c2)ncn1 [compound 13]
3. COc1ccc(F)c2c1cc(C)n2CCNc1cc(-c2ccc(C(=O)O)c(C)c2)ncn1 [compound 233]
4. COc1cccc2c1cc(C)n2CCNc1cc(-c2ccc(CN)c(F)c2)ncn1 [compound 24]
5. CCNc1cc(-c2cc(NCCn3c(C)cc4c(Cl)cccc43)ncn2)ccc1C(=O)O [compound 212]
6. COc1ccc(F)c2c1cc(C)n2CCNc1cc(-c2ccc(NC(N)=O)cc2)ncn1 [compound 132]

Response:
1: -0.11; 2: -0.37; 3: -0.50; 4: -0.05; 5: -0.76; 6: -0.56

// for each compound below, give its log10 of IC50
1. COc1cc(-c2cc(NCCn3c(C)cc4c(OC)cccc43)ncn2)cc(C)c1C(=O)O [compound 254]
2. CCOc1cc(-c2cc(NCCn3c(C)cc4cc(C)cc(Cl)c43)ncn2)ccc1C(=O)O [compound 284]
3. COc1cc(F)cc2c1cc(C)n2CCNc1cc(-c2ccc(-c3c[nH]cn3)cc2)ncn1 [compound 188]
4. COc1ccc(Cl)c2c1cc(C)n2CCNc1cc(-c2ccc3c(c2)CCN3)ncn1 [compound 66]
5. COc1ccc(F)c2c1cc(C)n2CCNc1cc(-c2cc(F)c(C(=O)O)s2)ncn1 [compound 112]
6. Cc1ccc(F)c2c1cc(C)n2CCNc1cc(-c2ccc(-c3c[nH]cn3)cc2)ncn1 [compound 72]

Response:
1. 0.00
2. -0.08
3. -1.37
4. -0.72
5. -1.16
6. -1.55

* * *

# Target Or Test System: PTRGER4 (EP4) (Homo sapiens (Human), UniProt P35408)
# Sequence (P35408 whole entry, looked up): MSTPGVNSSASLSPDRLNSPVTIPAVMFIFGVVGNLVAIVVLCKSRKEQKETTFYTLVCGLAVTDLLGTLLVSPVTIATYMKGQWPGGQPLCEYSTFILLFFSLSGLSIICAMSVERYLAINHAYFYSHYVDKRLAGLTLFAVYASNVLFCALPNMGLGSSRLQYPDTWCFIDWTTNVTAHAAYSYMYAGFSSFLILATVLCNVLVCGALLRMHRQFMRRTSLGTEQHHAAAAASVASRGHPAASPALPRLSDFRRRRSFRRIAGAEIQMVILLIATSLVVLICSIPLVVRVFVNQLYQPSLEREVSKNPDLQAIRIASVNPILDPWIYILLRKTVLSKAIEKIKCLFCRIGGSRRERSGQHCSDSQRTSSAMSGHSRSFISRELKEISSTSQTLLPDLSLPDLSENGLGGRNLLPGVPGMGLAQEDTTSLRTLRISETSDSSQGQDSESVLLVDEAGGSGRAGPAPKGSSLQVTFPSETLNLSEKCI
# Assay Overview: hEP4 b-arrestin assay (PathHunter HEK 293 PTGER4 b-arrestin cells)
# Format: cell-based
# Run Conditions: hEP4 b-arrestin assay (values without asterisk)
Parameter: IC50 (nM)
One number for each entry, in nM.

Prompt: Entry COc1ccc(F)c2c1cc(C#N)n2CCNc1cc(-c2ccc(OCC(=O)O)c(Cl)c2)ncn1 needs its IC50 filled in; supply it.
Response: 61

Prompt: Entry COc1cc(F)cc2c1cc(C)n2CCNc1cc(-c2cc(OCC(F)(F)F)c(C(=O)O)s2)ncn1 needs its IC50 filled in; supply it.
Response: 41

// for each molecule below, give its IC50
1. N#Cc1cc2c(Cl)cccc2n1CCNc1cc(-c2cc(C(F)(F)F)c(C(=O)O)s2)ncn1
2. CCOc1cc(-c2cc(NCCn3c(C#N)cc4c(C)cc(F)c(F)c43)ncn2)sc1C(=O)O

Response:
1. 27
2. 6

// for each molecule below, give its IC50
1. CCOc1cc(OCCC(=O)O)cc(-c2cc(NCCn3c(C#N)cc4c(OC)ccc(F)c43)ncn2)c1
2. COc1ccc(F)c2c1c(F)c(C#N)n2CCNc1cc(-c2cc(C(F)(F)F)c(C(=O)O)s2)ncn1

Response:
1: 20; 2: 3

// for each molecule below, give its IC50
1. COc1ccc(F)c2c1cc(C#N)n2CCNc1cc(-c2ccc(C(N)=O)s2)ncn1
2. COc1ncc(-c2cc(NCCn3c(C#N)cc4c(OC)ccc(F)c43)ncn2)cn1
3. CCOc1cc(-c2cc(NCCn3c(C#N)cc4c(OC)cccc43)ncn2)ccc1OCC(=O)O
4. CCOc1nc(-c2cc(NCCn3c(C)cc4c(OC)ccc(F)c43)ncn2)sc1C(=O)O

Response:
1. 22
2. 540
3. 12
4. 17

* * *

Provide the reported pIC50 of each item.
# Target Or Test System: PTGER2 (EP2) (Homo sapiens (Human))
# Assay Overview: hEP2 b-arrestin assay (PathHunter HEK 293 PTGER2 b-arrestin cells)
# Type: cell-based
# Run Conditions: hEP2 b-arrestin assay (values without asterisk)
Answers are plain numbers, as −log10 of the molar value.

Solved entries:
Prompt: Entry COc1ccc(F)c2c1cc(C#N)n2CCNc1cc(-c2ccc3c(c2)N(C)C(=O)NC3)ncn1 needs its pIC50 filled in; supply it.
Response: 8.00

Prompt: Entry CCOc1cc(-c2cc(NCCn3c(C#N)cc4c(OC)cc(F)c(F)c43)ncn2)ccc1OCC(=O)O needs its pIC50 filled in; supply it.
Response: 7.80

// switching to the query compound
Prompt: Entry CCCOc1nc(-c2cc(NCCn3c(C)cc4c(OC)ccc(F)c43)ncn2)sc1C(=O)O needs its pIC50 filled in; supply it.
Response: 8.70

* * *

Provide the reported IC50 of each item.
# Target Or Test System: EP4 (Homo sapiens (Human), UniProt P35408)
# Sequence (P35408 whole entry): as the sequence (P35408 whole entry, looked up) above
# Assay Overview: hEP4 cAMP assay (BT549 breast cancer cells, HTRF cAMP)
# Type: cell-based
# Run Conditions: antagonistic activity; mean values where measured multiple times
# Procedure: Plate is pre-incubated 45 minutes at room temperature. Subsequently, 2.5 microliters of PGE2 (final conc. 6 nM) are transferred into the assay plate. Plate is incubated 30 minutes at room temperature.
The answer should read as a number with its unit following.

Solved entries:
Prompt: Entry CCOc1cc(-c2cc(NCCn3c(C)cc4c(C)cc(F)cc43)ncn2)cc(F)c1-c1nnn[nH]1 needs its IC50 filled in; supply it.
Response: 303 nM

Prompt: Entry COc1c(F)cc(Cl)c2c1cc(C)n2CCNc1cc(-c2ccc3c(=O)[nH][nH]c3c2)ncn1 needs its IC50 filled in; supply it.
Response: 91 nM

Prompt: Entry CCCOc1cc(-c2cc(NCCn3c(C)cc4c(C)cc(F)c(F)c43)ncn2)cc(Cl)c1C(=O)O needs its IC50 filled in; supply it.
Response: 254 nM

// for each compound below, give its IC50
1. COc1ccc(F)c2c1cc(C)n2CCNc1cc(-c2ccc3oc(C)nc3c2)ncn1
2. COc1cccc2c1cc(C)n2CCNc1cc(-c2ccc(C(=O)O)c(OC(F)(F)F)c2)ncn1
3. CCNc1cc(-c2cc(NCCn3c(C)cc4c5c(cc(Cl)c43)OCO5)ncn2)ccc1-c1nnn[nH]1
4. CCOc1cc(-c2cc(NCCn3c(C)cc4c(OC)cc(F)cc43)ncn2)cc(F)c1-c1nnn[nH]1

Response:
["680 nM", "714 nM", "54 nM", "287 nM"]

* * *

Provide the reported IC50 of each item.
# Target Or Test System: PTGER2 (EP2) (Homo sapiens (Human), UniProt P43116)
# Sequence (P43116 whole entry): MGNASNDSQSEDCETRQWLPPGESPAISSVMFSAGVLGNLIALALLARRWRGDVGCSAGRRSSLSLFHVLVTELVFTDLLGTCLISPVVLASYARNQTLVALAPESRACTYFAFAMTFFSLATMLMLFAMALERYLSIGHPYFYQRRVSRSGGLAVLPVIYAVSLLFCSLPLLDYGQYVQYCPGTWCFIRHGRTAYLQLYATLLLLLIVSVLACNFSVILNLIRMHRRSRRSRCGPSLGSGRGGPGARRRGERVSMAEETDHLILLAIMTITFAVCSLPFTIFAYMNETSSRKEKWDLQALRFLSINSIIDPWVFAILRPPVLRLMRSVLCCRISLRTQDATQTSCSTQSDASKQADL
# Assay Overview: hEP2 b-arrestin assay (PathHunter HEK 293 PTGER2 b-arrestin cells)
# Assay type: cell-based
# Run Conditions: antagonistic activity on hEP2; mean where measured multiple times
Answers are plain numbers, in nM.

Prompt: Entry CNc1cc(-c2cc(NCCn3c(C)cc4c(OC)ccc(F)c43)ncn2)ccc1C(=O)O [compound 251] needs its IC50 filled in; supply it.
Response: 6

Prompt: Entry CCOc1cc(-c2cc(NCCn3c(C)cc4cc(OC)cc(F)c43)ncn2)sc1C(=O)O [compound 259] needs its IC50 filled in; supply it.
Response: 37

Prompt: Entry CCCc1cc(-c2cc(NCCn3c(C)cc4cc(C)cc(Cl)c43)ncn2)cc(Cl)c1C(=O)O [compound 335] needs its IC50 filled in; supply it.
Response: 56

Prompt: Entry CCNc1cc(-c2cc(NCCn3c(C)cc4c(C)ccc(F)c43)ncn2)cc(F)c1C(=O)O [compound 392] needs its IC50 filled in; supply it.
Response: 7

Prompt: Entry CCSc1cc(-c2cc(NCCn3c(C)cc4c(C)ccc(Cl)c43)ncn2)ccc1C(=O)O [compound 146] needs its IC50 filled in; supply it.
Response: 8

Prompt: Entry COc1ccc(F)c2c1cc(C)n2CCNc1cc(-c2ccc(N)cc2)ncn1 [Example 4] needs its IC50 filled in; supply it.
Response: 22

Prompt: Entry COc1ccc(F)c2c1cc(C)n2CCNc1cc(-c2ccc3ncccc3c2)ncn1 [compound 384] needs its IC50 filled in; supply it.
Response: 13

Prompt: Entry Cc1ccc(Cl)c2c1cc(C)n2CCNc1cc(-c2ccc3[nH]c(C(=O)O)cc3c2)ncn1 [compound 201] needs its IC50 filled in; supply it.
Response: 232

Prompt: Entry CCSc1cc(-c2cc(NCCn3c(C)cc4c(Cl)ccc(Cl)c43)ncn2)ccc1C(=O)O [compound 149] needs its IC50 filled in; supply it.
Response: 10

Prompt: Entry CCOc1cc(-c2cc(NCCn3c(C)cc4c(Cl)cc(Cl)cc43)ncn2)ccc1C(=O)O [compound 279] needs its IC50 filled in; supply it.
Response: 22

// for each compound below, give its IC50
1. CCC1NC(=O)c2ccc(-c3cc(NCCn4c(C)cc5c(OC)ccc(F)c54)ncn3)cc21 (racemic) [compound 319]
2. Cc1ccc(F)c2c1cc(C)n2CCNc1cc(-c2cc(Cl)c(C(=O)O)c(Cl)c2)ncn1 [compound 222]

Response:
10
42

// for each compound below, give its IC50
1. CCNc1cc(-c2cc(NCCn3c(C)cc4c(C)ccc(F)c43)ncn2)cc(Cl)c1C(=O)O [compound 353]
2. COc1ccc(F)c2c1cc(C)n2CCNc1cc(-c2ccc3c(C(=O)O)n[nH]c3c2)ncn1 [compound 389]
3. CCNc1cc(-c2cc(NCCn3c(C)cc4ccc(OC)cc43)ncn2)ccc1C(=O)O [compound 170]
4. COc1ccc(F)c2c1cc(C)n2CCNc1cc(-c2ccc(CO)c(C)c2)ncn1 [compound 32]
5. Cc1ccc(F)c2c1cc(C)n2CCNc1cc(-c2ccc3[nH]cnc3c2)ncn1 [compound 164]
6. CCCSc1cc(-c2cc(NCCn3c(C)cc4c(C)c(F)cc(Cl)c43)ncn2)ccc1C(=O)O [compound 371]

Response:
[13, 26, 1, 26, 113, 70]

// for each compound below, give its IC50
1. Cc1cc(F)cc2c1cc(C)n2CCNc1cc(-c2ccc(C(=O)O)c(C3CC3)c2)ncn1 [compound 354]
2. CCOc1cc(-c2cc(NCCn3c(C)cc4cc(C)cc(F)c43)ncn2)sc1C(=O)O [compound 228]
3. CCCc1cc(-c2cc(NCCn3c(C)cc4c(C#N)ccc(F)c43)ncn2)ccc1C(=O)O [compound 393]
4. Cc1cc2c(Cl)ccc(F)c2n1CCNc1cc(-c2cc(Cl)c(C(=O)O)s2)ncn1 [compound 14]

Response:
1: 32; 2: 4; 3: 9; 4: 4
